pIC50 listing for selected binders.
# Experimental system: CXCR4 E277A (human, UniProt P61073-1 1-352, E277A)
# Sequence (P61073 whole entry E277A): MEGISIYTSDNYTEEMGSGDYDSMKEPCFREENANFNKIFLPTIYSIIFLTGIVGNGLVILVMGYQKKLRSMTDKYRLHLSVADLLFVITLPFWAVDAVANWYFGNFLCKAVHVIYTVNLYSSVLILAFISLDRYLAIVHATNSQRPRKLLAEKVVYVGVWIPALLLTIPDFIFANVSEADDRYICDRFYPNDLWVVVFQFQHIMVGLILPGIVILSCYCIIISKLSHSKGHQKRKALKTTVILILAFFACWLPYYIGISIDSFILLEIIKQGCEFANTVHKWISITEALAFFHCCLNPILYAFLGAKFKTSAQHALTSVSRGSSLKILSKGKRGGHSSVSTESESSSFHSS
# Measurement notes: FACS
Note on units: pIC50 is unitless, being -log10 of a concentration expressed in mol/L.

>>> print(df.to_string())
                                     binder  value_type  endpoint_value
0  IVRWSKKVPCVS (also called EPI-X4 WSC02; source: synthetic peptide (Fmoc solid-phase synthesis, HPLC-purified)) [WSC02]       pIC50            6.11

Task: // Input: ILRWSRKLPCVS (source: synthetic peptide (Fmoc solid-phase synthesis, HPLC-purified)) [EPI-X4 JM#21] . Output its pIC50 only.
Result: 6.55

# credit: paper PMC8458281
